- Tested on: NCI-H460
- protocol-summary: NCI tumour cell line growth inhibition, 48 h
Calls of active or inactive are those of the source. No stated cut-off is given here; in the data, active = GI50 up to about 1.1 µM and inactive = higher.
Select the correct class. Options are Yes (active), No (inactive) and nothing else.

compound=CN(C)Cc1cc(/N=N/c2ccccc2Cl)ccc1O label_value=No

Query block: Test call for this compound, please: O=P(O)(Cc1ccccc1)OCC1(O)OCC(O)C(O)C1O (configuration not stated)
Result block: No

Query block: Short answer needed: outcome of this test for `Cc1cccc(-c2cc(O)c3c(C)cc(C)nc3n2)c1` ?
Result block: No

Query block: Entry `COc1ccc2c(cnc3c4cc(OC)c(OC)cc4ccc23)c1` : call = ?
Result block: No

Query block: Called result for `c1ccc2c(c1)n1nnnc1c1nnnn21`
Result block: No

Query block: I'd appreciate the recorded outcome for CCOC(=O)Oc1ccc(C(CNC(C)C)OC(=O)OCC)cc1OC(=O)OCC (configuration not stated) from this test.
Result block: No

Query block: Lab log entry: `CC(C)=C=CP(=O)(O)c1ccccc1` — outcome as called in the assay?
Result block: No

Query block: Answer briefly: the call reported for `NNc1nncc2[nH]nnc12` in this assay.
Result block: No
